Recorded CC50 by entry
- experimentalDetails: LC50 on immune cells (cytotoxic effect, cell viability)
- Type: cell-based
- statedConditions: T lymphocytes, Human cells
- Method: The mouse immune cells are obtained from C57BL6 mouse bone marrow. The human immune cells were purified from the whole blood of healthy donors (blood bank, IMSS, Cuernavaca, Mexico). The peptides are incubated at 37° C., 5% CO2 in the presence of 500,000 immune and non-immune cells in RPMI medium at varied concentrations and at varied times. Peptide-free cells are used as the negative control and cells incubated for 5 min at 50° C. or in the presence of DMSO (30%) are used as the positive control. […]
Ends that are not written are not given here.
Give a bare numeral; the unit µM is implied.

ALWKTLLKKVGKVAGKAVLNAVTNMANQN-OH [DA2N]; 4

Continue with the next substance.
Query: What value of measured CC50 is listed for ALWKTLLKKVGKVAGKAVLNAVTNMANQNEQ [DA2NEQ, ALWKTLLKKVGKVAGKAVLNAVTNMANQNEQOH] ?
Response: 5

====

- System: Pseudomonas aeruginosa ATCC 9027
- experimentalDetails: MIC/MBC (Example 10, MH medium)
- Type: cell-based
- statedConditions: Table 5; P. aeruginosa ATCC 9027
Ends that are not written are not given here.
measurementKind: MBC (µM)
Give a bare numeral; the unit µM is implied.

Example substances with recorded MBC:
ALWDTLLKKVGKVAGKAVLNAVTNMANQN [K4D]; 25
ALWKTLLKKVGKAAGKAVLNAVTNMANQN [V13A]; 6.3
ALWKTLLKKVGKVAGKAVLNAVTNMANQNE-OH [DA2NE]; 3.1

Continue with the next substance.
Query: What value of measured MBC is listed for ALWKTLLKKVGAVAGKAVLNAVTNMANQN [K12A] ?
Response: 6.3

====

- System: Escherichia coli ATCC 8739
- experimentalDetails: MIC/MBC (Example 10, MH medium)
- Assay type: cell-based
- statedConditions: Table 5; E. coli ATCC 8739
Ends that are not written are not given here.
Recorded MIC by entry
Give a bare numeral; the unit µM is implied.

Example sequences with recorded MIC:
ALWKTLAKKVGKVAGKAVLNAVTNMANQN [L7A]; 0.8
ALWKTLLKKVGKAAGKAVLNAVTNMANQN [V13A]; 1.6
ALWKTLLKKVGKVKGKAVLNAVTNMANQN [A14K]; 1.6

Query: What value of measured MIC is listed for ALWKTLLKKVGKVDGKAVLNAVTNMANQN [A14D] ?
Response: 6.3

Query: What value of measured MIC is listed for ALWDTLLKKVGKVAGKAVLNAVTNMANQN [K4D] ?
Response: 12.5

Query: What value of measured MIC is listed for ALWKTLLKKVGPVAGKAVLNAVTNMANQN [K12P] ?
Response: 6.3

====

- experimentalDetails: LC50 on immune cells (cytotoxic effect, cell viability)
- Format: cell-based
- statedConditions: C57BL6; NK cells, Mouse cells
Ends that are not written are not given here.
measurementKind: CC50 (µM)
Give a bare numeral; the unit µM is implied.

ALWKTLLKKVGKVAGKAVLNAVTNMANQNEQ [DA2NEQ, ALWKTLLKKVGKVAGKAVLNAVTNMANQNEQOH]; 4

Query: What value of measured CC50 is listed for ALWKTLLKKVGKVAGKAVLNAVTNMANQN-OH [DA2N] ?
Response: 3

====

- experimentalDetails: LC50 on red blood cells
- Type: cell-based
- statedConditions: C57BL6; Mouse red blood cells
Ends that are not written are not given here.
measurementKind: CC50
Provide the measurement as a number trailed by its unit.

ALWKTLLKKVGKVAGKAVLNAVTNMANQN-OH [DA2N]; 750 µM

Query: What value of measured CC50 is listed for ALWKTLLKKVGKVAGKAVLNAVTNMANQNEQ [DA2NEQ, ALWKTLLKKVGKVAGKAVLNAVTNMANQNEQOH] ?
Response: 750 µM

====

Recorded CC50 by entry
- experimentalDetails: LC50 on immune cells (cytotoxic effect, cell viability)
- Format: cell-based
- statedConditions: C57BL6; Neutrophils, Mouse cells
- Experimental: The mouse immune cells are obtained from C57BL6 mouse bone marrow. The human immune cells were purified from the whole blood of healthy donors (blood bank, IMSS, Cuernavaca, Mexico). The peptides are incubated at 37° C., 5% CO2 in the presence of 500,000 immune and non-immune cells in RPMI medium at varied concentrations and at varied times. Peptide-free cells are used as the negative control and cells incubated for 5 min at 50° C. or in the presence of DMSO (30%) are used as the positive control. […]
Ends that are not written are not given here.
Give a bare numeral; the unit µM is implied.

ALWKTLLKKVGKVAGKAVLNAVTNMANQN-OH [DA2N]; 6

Continue with the next substance.
Query: What value of measured CC50 is listed for ALWKTLLKKVGKVAGKAVLNAVTNMANQNEQ [DA2NEQ, ALWKTLLKKVGKVAGKAVLNAVTNMANQNEQOH] ?
Response: 7.5

====

- Test system: Staphylococcus aureus ATCC 6538
- experimentalDetails: MIC/MBC (Example 10, MH medium)
- Type: cell-based
- statedConditions: Table 5; S. aureus ATCC 6538
Ends that are not written are not given here.
Recorded log10(MIC) by entry
Hello, just confirming the data are log10 of MIC with units of µM.

Example substances with recorded log10(MIC):
ALWKTLAKKVGKVAGKAVLNAVTNMANQN [L7A]; 0.49
ALWKTLLKKVGKAAGKAVLNAVTNMANQN [V13A]; 0.80
ALWKTLLKKVGAVAGKAVLNAVTNMANQN [K12A]; 0.49
ALWDTLLKKVGKVAGKAVLNAVTNMANQN [K4D]; 1.10
ALWKTLLKKVGKVAGKAVLNAVTNMANQNE-OH [DA2NE]; 0.49

Query: What value of measured log10(MIC) is listed for ALWKTLLKKVGKVKGKAVLNAVTNMANQN [A14K] ?
Response: 1.40

Query: What value of measured log10(MIC) is listed for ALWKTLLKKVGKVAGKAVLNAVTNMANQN-NH2 [DA2Na] ?
Response: -0.10

Query: What value of measured log10(MIC) is listed for ALWKTLLKKVGKVAGKAVLNAVTNAANQN [M25A] ?
Response: 0.49

Query: What value of measured log10(MIC) is listed for ALWKTLLKKVGPVAGKAVLNAVTNMANQN [K12P] ?
Response: 0.80

====

- experimentalDetails: LC50 on immune cells (cytotoxic effect, cell viability)
- Format: cell-based
- statedConditions: C57BL6; T lymphocytes, Mouse cells
Ends that are not written are not given here.
measurementKind: CC50 (µM)
Give a bare numeral; the unit µM is implied.

ALWKTLLKKVGKVAGKAVLNAVTNMANQNEQ [DA2NEQ, ALWKTLLKKVGKVAGKAVLNAVTNMANQNEQOH]; 5

Query: What value of measured CC50 is listed for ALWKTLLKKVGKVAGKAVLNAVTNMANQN-OH [DA2N] ?
Response: 3

====

Recorded MBC by entry
- System: Pseudomonas aeruginosa ATCC 9027
- experimentalDetails: MIC/MBC (Example 10, MH medium)
- Format: cell-based
- statedConditions: Table 5; P. aeruginosa ATCC 9027
Ends that are not written are not given here.
Give a bare numeral; the unit µM is implied.

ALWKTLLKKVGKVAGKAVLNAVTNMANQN-NH2 [DA2Na]; 1.6
ALWKTLAKKVGKVAGKAVLNAVTNMANQN [L7A]; 1.6
ALWKTLLKKVGKVKGKAVLNAVTNMANQN [A14K]; 12.5
ALWKTLLKKVGKVAGKAVLNAVTNAANQN [M25A]; 3.1

Query: What value of measured MBC is listed for ALWKTLLKKVGPVAGKAVLNAVTNMANQN [K12P] ?
Response: 12.5

====

- Test system: Escherichia coli ATCC 8739
- experimentalDetails: MIC/MBC (Example 10, MH medium)
- Type: cell-based
- statedConditions: Table 5; E. coli ATCC 8739
Ends that are not written are not given here.
measurementKind: MIC
Provide the measurement as a number trailed by its unit.

Example substances with recorded MIC:
ALWKTLLKKVGAVAGKAVLNAVTNMANQN [K12A]; 1.6 µM
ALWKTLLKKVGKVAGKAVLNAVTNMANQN-NH2 [DA2Na]; 0.8 µM

Query: What value of measured MIC is listed for ALWKTLLKKVGKVAGKAVLNAVTNAANQN [M25A] ?
Response: 0.8 µM

Query: What value of measured MIC is listed for ALWKTLLKKVGKVAGKAVLNAVTNMANQNE-OH [DA2NE] ?
Response: 0.8 µM

====

Recorded CC50 by entry
- experimentalDetails: LC50 on red blood cells
- Assay type: cell-based
- statedConditions: Human red blood cells
Ends that are not written are not given here.

ALWKTLLKKVGKVAGKAVLNAVTNMANQNEQ [DA2NEQ, ALWKTLLKKVGKVAGKAVLNAVTNMANQNEQOH]; 750 µM

Continue with the next substance.
Query: What value of measured CC50 is listed for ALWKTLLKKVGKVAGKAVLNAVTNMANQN-OH [DA2N] ?
Response: 750 µM
